Target: Torsin-1A (Homo sapiens) (UniProt O14656)
Sequence (O14656 whole entry, looked up): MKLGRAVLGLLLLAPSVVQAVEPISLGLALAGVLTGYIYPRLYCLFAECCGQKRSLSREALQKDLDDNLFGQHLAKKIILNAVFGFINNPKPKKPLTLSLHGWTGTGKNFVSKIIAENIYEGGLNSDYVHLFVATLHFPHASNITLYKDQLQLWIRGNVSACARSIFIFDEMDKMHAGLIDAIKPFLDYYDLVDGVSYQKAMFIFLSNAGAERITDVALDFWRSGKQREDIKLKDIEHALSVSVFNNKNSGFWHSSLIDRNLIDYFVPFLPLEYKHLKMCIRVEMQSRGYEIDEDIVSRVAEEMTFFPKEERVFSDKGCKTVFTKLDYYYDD
Experiment: small-molecule binders of mutant TOR1A in lysate, primary screen, cell lysate, small-molecule microarray, COS7 lysate, 635/667 nm fluorescence (AID 1150);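 also: score pools 667 nm emission and signal to noise measuring lysate protein binding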
Settings: COS7 hTOR1A mutant lysate, 635 nm fluorescence, higher = more signal
READOUT_LABEL: composite z-score
The answer should be written as a number, with no unit following it.

Recorded composite z-score for CCCCN1CC=CC23O[C@@H]4/C=C\CCC(C)OC(=O)C4[C@H]2C(=O)N(CCCCCO)[C@@H]3C1=O (some centres not stated) , please?
-1.78

Recorded composite z-score for `O=C(NCc1ccc(F)cc1)[C@H]1C[C@H]2C(=O)N[C@@H](Cc3ccccc3)C(=O)N2[C@H]1c1ccc(O)cc1` , please?
1.37

Recorded composite z-score for `CC(C)N1C(=O)c2ccccc2[C@](C)(C(=O)NCc2ccccc2)[C@@H]1c1ccc(CO)cc1` , please?
-0.119

Continue with the compound presented below.
Recorded composite z-score for `C=CCNC(=O)[C@@H]1[C@H]2C(=O)O[C@H](c3ccccc3)[C@H](c3ccccc3)N2[C@H](c2ccc(OCCO)cc2)[C@@]12C(=O)Nc1ccc(C#CCCO)cc12` , please?
1.17

* * *

Assay: binders of probe aHhip on microarray, primary screen, stem cell growth factor project, biochemical, small-molecule microarray, fluorescence 635/667 (AID 1087);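 also: score merges spot fluorescence at 667nm with spot signal to noise ratio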
Conditions: higher = more signal
READOUT_LABEL: composite z-score
The answer should be written as a number, with no unit following it.

Recorded composite z-score for `Cc1ccc(S[C@]2(C(=O)NCC(C)C)CC(=O)N(Cc3cc(C(F)(F)F)cc(C(F)(F)F)c3)[C@@H]2c2ccc(CO)cc2I)cc1` , please?
-0.216

Recorded composite z-score for `CCCC#C[Si](O[C@H](CC)c1cn([C@H](CO)Cc2ccccc2)nn1)(C(C)C)C(C)C` , please?
-0.0003

Recorded composite z-score for `C=CCNC(=O)[C@@H]1[C@H]2C(=O)O[C@H](c3ccccc3)[C@H](c3ccccc3)N2[C@H](c2ccc(OCCO)cc2)[C@@]12C(=O)Nc1ccc(C#Cc3ccc(OC)cc3)cc12` , please?
0.283

Recorded composite z-score for `COCCCNC(=O)[C@@]1(Cc2ccccc2N=[N+]=[N-])N=C(c2ccc(OCCCO)cc2)O[C@H]1c1ccccc1N=[N+]=[N-]` , please?
-0.26

Recorded composite z-score for C=CCC(OC(C)=O)[C@@H]1[C@@H](N(Cc2ccc(-c3ccccc3)cc2)C(=O)Cc2ccc(F)cc2)c2cc(OCCCO)ccc2N1C(=O)c1ccc(-c2ccccc2)cc1 (some centres undefined) , please?
-0.0994

---
Recorded composite z-score for `CCCC=C(CCC)[C@@H](NC(=O)Oc1ccc(F)cc1)c1ccc(C(=O)OC)cc1` , please?
-0.121

Recorded composite z-score for `CC(C)C[C@@H]1NC(=O)[C@H]2C[C@@H](C(=O)NCCCCCCN)[C@@H](c3ccc(O)cc3)N2C1=O` , please?
0.134

Recorded composite z-score for `COCCOC(=O)N1C(=O)[C@@]2(c3cc(C#CC4=CCCCC4)ccc31)[C@H](c1ccc(O)cc1)N1[C@H](c3ccccc3)[C@H](c3ccccc3)OC(=O)[C@H]1[C@@H]2C(N)=O` , please?
0.154

Recorded composite z-score for `CCCN1C(=O)[C@]2(CCS(=O)(=O)c3ccccc3)N=C(c3ccc(OCCCO)cc3)O[C@@H]2c2ccccc21` , please?
-0.0645

This collection of values is drawn from PubChem BioAssay.
